EXPERIMENTAL PARAMETERS: buffer; pH 7.4; 200.0 µM
Returns criterion met if the recorded solubility kinetic is greater than or equal to 9 µg/mL, and criterion not met otherwise.

{"MOLECULE": "O=C(NCc1ccncc1)C(=O)NCc1ccncc1", "LABEL CLASS": "criterion met"}
{"MOLECULE": "S=C(NCCCc1ccccc1)NC1CCCCC1", "LABEL CLASS": "criterion met"}
{"MOLECULE": "COc1ccc(C(=O)N2CCC(c3ccccc3)CC2)c(OC)c1OC", "LABEL CLASS": "criterion met"}
{"MOLECULE": "Cn1c(SCC(N)=O)nnc1-c1ccc(C(C)(C)C)cc1", "LABEL CLASS": "criterion met"}
{"MOLECULE": "O=C(Nc1cc(Cl)ccc1Cl)c1ccco1", "LABEL CLASS": "criterion not met"}
{"MOLECULE": "O=C(COc1ccccc1Br)NC1CC1", "LABEL CLASS": "criterion met"}
{"MOLECULE": "COc1ccc(N=Cc2cc(Cl)ccc2O)cc1Cl", "LABEL CLASS": "criterion met"}
{"MOLECULE": "CCC(C)Nc1nc(N)c([N+](=O)[O-])c(NC2CCCCC2)n1 (stereo not given)", "LABEL CLASS": "criterion not met"}
{"MOLECULE": "c1ccc2nc3c(nc2c1)OCC1CCCCN31 (stereo not given)", "LABEL CLASS": "criterion met"}
{"MOLECULE": "CCOC(=O)C(C(=O)N(C)Cc1ccccc1)C1CCCCC1 (stereo not given)", "LABEL CLASS": "criterion met"}
{"MOLECULE": "COc1ccccc1-n1cnnc1SCC(=O)N1CCOCC1", "LABEL CLASS": "criterion met"}
{"MOLECULE": "CCOc1ccccc1NC(=O)NCc1ccc2c(c1)OCO2", "LABEL CLASS": "criterion not met"}
{"MOLECULE": "C#CCOC(=O)Nc1ccc(OCC(F)(F)F)nc1", "LABEL CLASS": "criterion met"}
{"MOLECULE": "CCOC(=O)N1CCN(CC(=O)Nc2ccc(F)c(F)c2)CC1", "LABEL CLASS": "criterion met"}
{"MOLECULE": "CCOC(=O)c1cnc2cc(F)c(F)cc2c1N1CCOCC1", "LABEL CLASS": "criterion met"}
{"MOLECULE": "Cc1nc2ccccc2c(=O)n1-c1cccc([N+](=O)[O-])c1", "LABEL CLASS": "criterion met"}
{"MOLECULE": "COc1cccc(-c2cc(C(=O)NCc3cccs3)no2)c1", "LABEL CLASS": "criterion not met"}
{"MOLECULE": "COc1ccc(OC)c(C(=O)c2coc3ccc(O)c(CN(C)C)c23)c1.Cl", "LABEL CLASS": "criterion met"}
{"MOLECULE": "O=C1C(Nc2ccccc2)=C2CCCC=C2N1c1ccccc1", "LABEL CLASS": "criterion not met"}
{"MOLECULE": "O=C(COC(=O)c1ccco1)NC1CCCC1", "LABEL CLASS": "criterion met"}
{"MOLECULE": "COc1ccc(S(=O)(=O)N2CCCCC2C)cc1 (stereo not given)", "LABEL CLASS": "criterion met"}
{"MOLECULE": "Cc1ccc(CC(=O)O/N=C(\\N)c2ccncc2)cc1", "LABEL CLASS": "criterion met"}
{"MOLECULE": "CCc1sc(C(=O)N2CCN(c3ccc(F)cc3)CC2)cc1C", "LABEL CLASS": "criterion met"}
{"MOLECULE": "Cc1cccn2c(=O)c3cc(C(=O)N4CCCCC4C)sc3nc12 (stereo not given)", "LABEL CLASS": "criterion met"}
{"MOLECULE": "CCN1CCN(CCC(=O)Nc2ccc(C)cc2)CC1.Cl", "LABEL CLASS": "criterion met"}
{"MOLECULE": "Cc1cc(Cl)ccc1OCC(=O)Nc1ccncc1", "LABEL CLASS": "criterion met"}
{"MOLECULE": "COc1ccc(CCNC(=O)Nc2cccc([N+](=O)[O-])c2)cc1OC", "LABEL CLASS": "criterion met"}
{"MOLECULE": "Cc1ccc(C(=O)NC(=S)Nc2ccccc2C)cc1", "LABEL CLASS": "criterion not met"}
{"MOLECULE": "O=C(O)CSC(=S)N1CC2CC(C1)c1cccc(=O)n1C2 (stereo not given)", "LABEL CLASS": "criterion met"}
{"MOLECULE": "CCSC1=C(C#N)C2(CCCCC2)C2=C(CC(C)(C)CC2=O)N1", "LABEL CLASS": "criterion not met"}
{"MOLECULE": "CC(OC(=O)c1cccc([N+](=O)[O-])c1)C(=O)NCc1ccc2c(c1)OCO2 (stereo not given)", "LABEL CLASS": "criterion met"}
{"MOLECULE": "c1ccc2c(CN3CCSCC3)cccc2c1", "LABEL CLASS": "criterion not met"}
{"MOLECULE": "O=C(c1ccc(Cl)cc1)n1cnc2ccccc21", "LABEL CLASS": "criterion met"}
{"MOLECULE": "COC(=O)/C(C#N)=C\\c1c(OC)[nH]c2ccccc12", "LABEL CLASS": "criterion not met"}
{"MOLECULE": "O=C(COc1ccc2ccccc2c1Br)N1CCCC1", "LABEL CLASS": "criterion met"}
{"MOLECULE": "CN1CCN(/N=C/c2c[nH]c3ccccc23)CC1", "LABEL CLASS": "criterion met"}
{"MOLECULE": "COc1ccc(NC(=O)CSc2nncn2C)cc1", "LABEL CLASS": "criterion met"}
{"MOLECULE": "Nc1nc2cc(S(=O)(=O)N3CCOCC3)ccc2o1", "LABEL CLASS": "criterion met"}
{"MOLECULE": "O=C(CCn1c(=O)sc2ccccc21)NC1CCCCC1", "LABEL CLASS": "criterion met"}
{"MOLECULE": "CN(C)/C=C/C(=O)c1ccc(-n2cccc2)cc1", "LABEL CLASS": "criterion met"}
{"MOLECULE": "O=C(Cc1ccc(F)cc1)Nc1nccs1", "LABEL CLASS": "criterion met"}
{"MOLECULE": "COc1ccc(C(=O)OCC(=O)Nc2sccc2C(N)=O)cc1OC", "LABEL CLASS": "criterion not met"}
{"MOLECULE": "O=C(Cc1ccc(Cl)cc1)OCC(=O)c1ccc[nH]1", "LABEL CLASS": "criterion met"}
{"MOLECULE": "Cn1c(SCc2ccc(C#N)cc2)nnc1-c1ccncc1", "LABEL CLASS": "criterion met"}
{"MOLECULE": "CC(=O)N1CCN(c2ccc(NC(=O)c3cccc(C)c3)cc2)CC1", "LABEL CLASS": "criterion not met"}
{"MOLECULE": "O=C(c1cnsn1)N1CCC(CO)(Cc2cccc(F)c2)CC1", "LABEL CLASS": "criterion met"}
{"MOLECULE": "CC(SCc1ccccc1)C(=O)Nc1ccccc1 (stereo not given)", "LABEL CLASS": "criterion met"}
{"MOLECULE": "Cn1c(CN2CCN(S(C)(=O)=O)CC2)nc2cc([N+](=O)[O-])ccc21", "LABEL CLASS": "criterion met"}
{"MOLECULE": "CC1(C)CC(=O)C=C(Nc2ccc([N+](=O)[O-])cc2)C1", "LABEL CLASS": "criterion met"}
